Literature roundup of UniProt Q9UDY8 data, read-out IC50.
Your answer is read as nM, so omit the unit and give the number.

Examples from the recorded data:
Look at this molecule and give its reported IC50. NCc1cnn(-c2ncc(NC(=O)c3cnn(-c4cccc5ncccc45)c3C(F)(F)F)cc2Cl)n1
145

Look at this molecule and give its reported IC50. O=C1CO[C@H](c2ncc(-n3ncc(C(=O)Nc4cnc(-n5nccn5)c(Cl)c4)c3C(F)(F)F)c3ccccc23)C1 (single isomer, unassigned)
178

Look at this molecule and give its reported IC50. CN(C)c1ncc(-n2ncc(C(=O)Nc3cnc(-n4nccn4)c(Cl)c3)c2C(F)(F)F)c2ccccc12
214

Look at this molecule and give its reported IC50. Nc1ncc(-n2ncc(C(=O)Nc3ccnc(C(F)(F)F)c3)c2C(F)(F)F)c2ccccc12
117

Look at this molecule and give its reported IC50. Nc1ncc(-n2ncc(C(=O)Nc3cnc(-n4nccn4)c(Cl)c3)c2C(F)(F)F)c2ccccc12
19

---
Look at this molecule and give its reported IC50. O=C(Nc1cnc(-n2nccn2)c(Cl)c1)c1cnn(-c2cccc(C3=COCCO3)n2)c1C(F)(F)F
5130

Look at this molecule and give its reported IC50. NC(=O)c1ccc(-n2ncc(C(=O)Nc3cnc(-n4nccn4)c(Cl)c3)c2C(F)(F)F)c2ccnn12
25

Look at this molecule and give its reported IC50. COc1ncccc1-n1ncc(C(=O)Nc2cnc(-n3nccn3)c(Cl)c2)c1C(F)(F)F
148

Look at this molecule and give its reported IC50. Cc1cc(F)c(N)nc1-n1ncc(C(=O)Nc2cnc(-n3nccn3)c(C#N)c2)c1C(F)(F)F
32

Look at this molecule and give its reported IC50. O=C(Nc1cnc(-n2cccn2)c(Cl)c1)c1cnn(-c2ccc(F)c3nccn23)c1C(F)(F)F
251

* * *

Literature roundup of MALT1 (Homo sapiens, UniProt Q9UDY8) data, read-out IC50.
Class definitions on IC50: low: < 40 nM; moderate: ≥ 40 nM and < 200 nM; high: ≥ 200 nM

Look over these answered cases.
Could you tell me which band Nc1nc(-n2ncc(C(=O)Nc3cnc(-n4nccn4)c(Cl)c3)c2C(F)(F)F)ccc1F belongs to?
moderate

Could you tell me which band O=C(Nc1cnc(-n2nccn2)c(Cl)c1)c1cnn(-c2ccccc2)c1F belongs to?
high

Could you tell me which band N#Cc1cc(NC(=O)c2cnn(-c3cccc4c(F)cccc34)c2C(F)(F)F)cnc1-n1nccn1 belongs to?
low

Could you tell me which band COc1nc(-n2nccn2)c(Cl)cc1NC(=O)Nc1cnc(C)c(Cl)c1[C@H](C)OC belongs to?
high

Could you tell me which band N#Cc1cc(NC(=O)c2cnn(-c3ccc(F)c4nccn34)c2C(F)(F)F)cnc1-n1nccn1 belongs to?
low

Could you tell me which band Cn1ccc(-c2ncc(NC(=O)c3cnn(-c4cncc5ccccc45)c3C(F)(F)F)cc2Cl)n1 belongs to?
low

---
Could you tell me which band Cc1ccc2ncccc2c1-n1ncc(C(=O)Nc2cnc(-n3nccn3)c(Cl)c2)c1C(F)(F)F belongs to?
low

Could you tell me which band Nc1cccc(-n2ncc(C(=O)Nc3cnc(-n4nccn4)c(Cl)c3)c2C(F)(F)F)n1 belongs to?
high

Could you tell me which band O=C(Nc1cnc(-n2nc3cccnc3n2)c(Cl)c1)c1cnn(-c2cccc3ncccc23)c1C(F)(F)F belongs to?
high

Could you tell me which band O=C(Nc1cnc(-n2nccn2)c(Cl)c1)c1cnn(-c2cccc3ncc(Cl)n23)c1C(F)(F)F belongs to?
low

Could you tell me which band N#Cc1cc(NC(=O)c2cnn(-c3cccc4nnsc34)c2C(F)(F)F)cnc1-n1nccn1 belongs to?
low

Could you tell me which band N#Cc1ccc(-n2ncc(C(=O)Nc3cnc(-n4nccn4)c(Cl)c3)c2C(F)(F)F)nc1N belongs to?
moderate

Could you tell me which band CN(C=O)Cc1ncc(-n2ncc(C(=O)Nc3cnc(-n4nccn4)c(Cl)c3)c2C(F)(F)F)c2ccccc12 belongs to?
moderate

Could you tell me which band O=C(Nc1ccnc(N2CCOCC2)c1)c1cnn(-c2cccc3c(=O)[nH]ccc23)c1C(F)(F)F belongs to?
high
